Give pKd for every item shown.
assayTarget: NANPNVDP (Plasmodium falciparum)
methodSummary: BLI, target on sensor
FYI, pKd means -log10 of a concentration in mol per litre.

Prompt: GET /values?readout=pKd&item= AB-007062 (antibody, V domains shown) VH: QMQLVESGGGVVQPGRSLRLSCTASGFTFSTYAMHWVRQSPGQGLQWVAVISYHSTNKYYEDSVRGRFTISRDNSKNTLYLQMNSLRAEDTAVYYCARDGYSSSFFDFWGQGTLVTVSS VL: DIQMTQSPSTLSASVGDRVAITCRASQSISSWLAWYQQQPGKAPKLLMSGASVLESGVPSRFSGSGSGTEFTLTISSLQPDDFATYYCQHYNSYFVTFGQGTKVEIK
Completion: 7.65

Prompt: Now give it for AB-007028 (antibody, V domains shown) VH: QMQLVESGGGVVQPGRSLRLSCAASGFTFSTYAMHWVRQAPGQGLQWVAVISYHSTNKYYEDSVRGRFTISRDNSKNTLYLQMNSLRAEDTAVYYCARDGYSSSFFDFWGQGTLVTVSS VL: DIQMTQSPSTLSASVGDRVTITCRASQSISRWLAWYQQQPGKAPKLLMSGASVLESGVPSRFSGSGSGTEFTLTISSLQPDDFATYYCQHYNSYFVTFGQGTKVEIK too.
Completion: 8.04

All values here come from patent US20220195023A1.
